- System: SF-268 CNS
- assay-procedure: NCI-60 one-dose screen, 48 h (100 = growth as untreated, 0 = no growth, -100 = all killed)
- particulars: 10 µM unless noted
About 83,000 compounds went through this panel and 20% of them were active in at least one assay; those are over-represented in the sample as a whole.
Decide by growth: equal to or exceeding 80% means Satisfied, less means Not satisfied.

Worked examples follow.
{"chemical-structure": "CNS(=O)(=O)c1cccc(-c2ccc3c4c(n(C)c(=O)c3c2)-c2ccccc2C4=O)c1", "assay-system": "SF-268 CNS", "qualitative-label": "Not satisfied"}
{"chemical-structure": "Nc1c(C(=O)Nc2ccccc2)sc2nc3c(cc12)CN(C(=O)OCc1ccccc1)CC3", "assay-system": "SF-268 CNS", "qualitative-label": "Not satisfied"}
{"chemical-structure": "COc1ccc(N(C)c2nc(Cl)nc3ccn(C)c23)cc1", "assay-system": "SF-268 CNS", "qualitative-label": "Not satisfied"}

Please tell me: is the molecule Cc1c(O)c(=O)ccn1-c1nc2ccccc2s1 at or over 80% in terms of growth?
Satisfied

Kindly determine if growth recorded for C=C1C(=O)O[C@H]2[C@H]1CC/C(COC(=O)NCC(=O)Nc1ccc(OC)c(C(N)=O)c1O)=C\CC[C@@]1(C)O[C@@H]21 is above or exactly 80%.
Not satisfied

Could you tell me if the measured growth of CC1(C)[C@@H](O)CC[C@]2(C)[C@H]3CC[C@@H]4[C@H]5[C@H](c6cn(-c7ccccc7)nn6)CC[C@]5(CO)CC[C@@]4(C)[C@]3(C)CC[C@@H]12 reaches 80% or more?
Not satisfied

* * *

- Tested on: NCI-H522 lung
- assay-procedure: NCI-60 one-dose screen, 48 h (100 = growth as untreated, 0 = no growth, -100 = all killed)
- particulars: 10 µM unless noted
- Description: Growth inhibition of the NCI-H522 human Non-Small Cell Lung tumor cell line is measured as a screen for anti-cancer activity. Cells are grown in 96 well plates and exposed to the test compound for 48 hours. Compounds are tested at a single concentration, which is 10^-5 M for most compounds. The reported endpoint is percent growth (GI% or GIPRCNT), where numbers from 0 - 100% represent growth inhibition, and numbers from -100% - 0 represent cell death. […]
About 83,000 compounds went through this panel and 20% of them were active in at least one assay; those are over-represented in the sample as a whole.
measure: growth (%)
Reply numerically in %, unit not repeated.

# example entries with known answers
{"chemical-structure": "Nc1c(C(=O)Nc2ccccc2)sc2nc3c(cc12)CN(C(=O)OCc1ccccc1)CC3", "measure": "growth", "unit-text": "%", "quantitative-readout": 35.6}
{"chemical-structure": "O=C(CSC(=S)N1CCCCC1)Nc1ccccc1", "measure": "growth", "unit-text": "%", "quantitative-readout": 82.3}
{"chemical-structure": "CCN(CC)CC#CCOC(=O)[C@]1(C)CCC[C@]2(C)[C@H]3C[C@H]4C(C(C)C)=C[C@]3(CC[C@H]21)[C@@H]1C(=O)CCC(=O)[C@@H]14", "measure": "growth", "unit-text": "%", "quantitative-readout": 29.5}
{"chemical-structure": "Nc1c(C(=O)Nc2ccccn2)sc2nc3c(cc12)C(=O)CCC3", "measure": "growth", "unit-text": "%", "quantitative-readout": 12}
{"chemical-structure": "Nn1c(SCC(=O)Nc2ccc(Cl)cc2)nnc1-c1cc(F)c(Cl)cc1Cl", "measure": "growth", "unit-text": "%", "quantitative-readout": 66.1}

Entry CCCCCCN1C(=O)CN=C1Nc1ccc2cc3ccc(NC4=NCC(=O)N4CCCCCC)cc3nc2c1 has what growth?
-9.83

Bench note: what growth did CCCn1cc(/C=N\N=C2\C(=O)Nc3ccc(C)cc32)c2ccccc21 show?
13.8

Can you look up the measured growth of O=C(CCCCCCCCC(=O)Nc1cccc(C2=NCCN2)c1)Nc1cccc(C2=NCCN2)c1 for me?
70.3

Fill in the blank: the reported growth of O=c1[nH]nc(-c2ccccc2)c2sc(NC(=S)Nc3ccc(Cl)cc3)nc12 is ____.
68.6

* * *

- Tested on: MALME-3M melanoma
- assay-procedure: NCI-60 one-dose screen, 48 h
- particulars: 10 µM unless noted
About 83,000 compounds went through this panel and 20% of them were active in at least one assay; those are over-represented in the sample as a whole. Calls of active or inactive are those of the source. How the source made its calls: active means growth percent below 10; inactive means the rest.
Valid outcomes are listed here; reply with one: active, inactive

# example entries with known answers
{"molecule": "Cn1c2ccccc2c2c(OC(=O)c3ccccc3)c3c(nc21)-c1ccccc1C3", "qualitative-label": "inactive"}
{"molecule": "COc1cc(N=Nc2cc(S(=O)(=O)O)cc3cc(S(=O)(=O)O)cc(O)c23)c(C)cc1N=Nc1c(S(=O)(=O)O)cc2cc(Nc3ccccc3)ccc2c1O", "qualitative-label": "inactive"}
{"molecule": "CN(C)CCCn1c2c(c3cc(-c4cccc(S(N)(=O)=O)c4)ccc3c1=O)C(=O)c1ccccc1-2", "qualitative-label": "inactive"}

State the result this test recorded for CCN1CCC[C@H]1c1cc(O)c2c(c1OC)C[C@H]1C[C@H]3[C@H](N)C(=O)C(C(N)=O)=C(O)[C@@]3(O)C(=O)C1=C2O .
active

Record request — test call for COc1cc(NC(=O)Nc2cnc(Nc3ccc(N4CCOCC4)cc3)nc2Oc2ccc(F)cc2)cc(OC)c1
inactive

Record lookup: outcome of this test for COc1cc2c(cc1OC)C(Sc1ccc(Cl)cc1)c1c(nc(N)c(C#N)c1N)O2 (stereo not drawn) ?
active

// param item: CCCCc1ccc(N=Nc2ccc(OCC[N+](C)(C)C)cc2)cc1 ; yields the recorded call
inactive

Dear colleague, could you share the recorded outcome for COc1ccc2c(c1)C1(C(=O)N2)C(C#N)=C(c2ccccc2)Nc2c1c(-c1ccccc1)nn2-c1ccccc1 (stereo not drawn) when you have a moment?
inactive

I would be grateful if you could indicate the recorded call for Nc1c(C(=O)Nc2ccccc2)sc2nc3c(cc12)CN(C(=O)OCc1ccccc1)CC3 .
inactive

Hi team, can someone confirm the assay call for COc1ccc(C2CC(c3ccc(OC)cc3O)=NN2c2ccc(S(N)(=O)=O)cc2)cc1 (stereo not drawn) ?
inactive

For this molecule, state the assay outcome: COc1cc(NC(=O)c2cc(O)c(C/C=C(\C)CCC=C(C)C)c(O)c2)cc2c1O[C@]1(C)CC[C@@H](O)C(C)(C)[C@H]1C2
active

Entry NS(=O)(=O)c1ccc(-n2ncc(NC(=O)Nc3ccc(S(=O)(=O)Nc4nccs4)cc3)c2-c2ccccc2)cc1 : call = ?
inactive

Dear all, I need the recorded test outcome for O=C(O)COc1ccc2c(=O)c3sc4c(=O)c5ccccc5c(=O)c4c3c(=O)c2c1 , thank you.
active

* * *

- System: SNB-19 CNS
- assay-procedure: NCI-60 one-dose screen, 48 h
- particulars: 10 µM unless noted
This is part of a sample that, as a whole, favours compounds with a hit. Of some 83,000 tested, about 20% had one in any assay. Activity calls are given as the source filed them. The calls were made as follows: active = growth percent below 10; inactive = the rest.
In this exercise, the only acceptable responses are y = active, n = inactive

A selection of reference data follows.
{"compound": "N#Cc1ccc(N2Cc3cc(Cl)ccc3OC3=C2C(=O)N(Cc2ccccc2)C3=O)cc1", "qualitative-label": "n"}
{"compound": "CCn1cc(C(=O)O)c(=O)c2cc(F)c(N3CCN(CC(=O)Nc4ccc(/C(C)=N/OC)cc4)CC3)cc21", "qualitative-label": "n"}
{"compound": "C#C[C@@]1(O)[C@@H](CO)O[C@@H](n2cc(Br)c3c(N)ncnc32)[C@@H]1O", "qualitative-label": "y"}

Any idea what this test logged for COc1ccc(-c2[nH]c3ccccc3c2C=C(C#N)C#N)cc1 ?
n

# fetch the recorded call for O=C(CCc1nnco1)c1nc2ccc([N+](=O)[O-])cc2[nH]1 here
n

Record request — test call for O=C1NCc2ccc3c(-c4cccc(Cl)c4)c[nH]c3c21
n

Give the logged outcome of this assay for the following compound: O=C1NC(SCc2ccc(F)cc2)=N/C1=C/c1cccc(OCc2ccc(Cl)cc2)c1
n

For C[C@H](Oc1cc(-c2cnn(C3CCNCC3)c2)cnc1N)c1c(Cl)ccc(F)c1Cl , what call appears in the results of this test?
n

* * *

- System: SF-268 CNS
- assay-procedure: NCI-60 one-dose screen, 48 h
- particulars: 10 µM unless noted
Compounds without any hit were thinned out: in the full panel of roughly 83,000, 20% have a hit. Active and inactive are the calls of the source. How the source made its calls: active means growth percent below 10; inactive means the rest.
Respond using exactly one of the listed classes: active, inactive

Check out these entries, answers already filled in.
{"molecule": "S=c1ssnc1-c1cc2ccccc2o1", "assay-system": "SF-268 CNS", "qualitative-label": "inactive"}
{"molecule": "COc1ccc2nc(-c3ccc(Cl)cc3)cc(C(=O)N3N=C(c4ccc(N)cc4)CC3c3ccccc3)c2c1 (stereo not given)", "assay-system": "SF-268 CNS", "qualitative-label": "inactive"}
{"molecule": "O=C1c2ccccc2C(=O)c2c1oc1c2c(=O)[nH]c2ccccc21", "assay-system": "SF-268 CNS", "qualitative-label": "inactive"}
{"molecule": "COc1cc(/C=C/C(=O)/C=C/c2cc3ccc(Cl)cc3n(Cc3ccccc3)c2=O)ccc1O", "assay-system": "SF-268 CNS", "qualitative-label": "inactive"}
{"molecule": "Cc1cnc(SCc2ccc(Cl)cc2)[nH]c1=S", "assay-system": "SF-268 CNS", "qualitative-label": "inactive"}

Recorded test call requested for C=C1C(=O)O[C@H]2[C@H]1CCC(/C=N/c1ncc(Br)cc1N)=C\CC[C@@]1(C)O[C@@H]21
inactive

Recorded test outcome, item COC(=O)/C=C1\SC(=Nc2ccc(C(F)(F)F)cc2)N(CCc2c[nH]c3ccccc23)C1=O
active

GET /call?item= Cc1cccc(C)c1NCc1nnc(-c2ccco2)o1 returns the recorded outcome of this test.
inactive

Check the results log: what was the call for O=C(/C(=C\c1c(-c2ccccc2)[nH]c2ccccc12)S(=O)(=O)c1ccccc1)c1ccccc1 ?
inactive

Test call, this molecule: COc1cc(C2=NNC(c3ccc(N(C)C)cc3)C2)cc(OC)c1OC (stereo not given)
inactive
